Below, each entry is listed alongside its reported Pam type.
# TARGET_SYSTEM: hα7-wt nAChR-expressing GH4Cl cells (Homo sapiens)
# Construct: expressed in transfected cells
# PROCEDURE_DETAILS: Patch-clamp current recording (whole-cell), potentiation of choline 1 mM response, PAM type
# Format: cell-based
# Design: key: Type 0 compounds minimally enhance the effect size of the current elicited by 1 mM choline.; Type 1 compounds enhance the effect size of the current elicited by 1 mM choline but minimally alter the kinetics of the receptor.; Type 2 compounds enhance the effect size of the current elicited by 1 mM choline while reducing the rate and/or the extent of desensitization.; Type 3 compounds enhance the effect size of the current elicited by 1 mM choline. When tested at higher concentrations up to 10 μM they completely inhibit desensitization, in particular a 1 mM choline application of 250 milliseconds.; Type 4 compounds allow for an initial desensitization of the receptor followed by a re-opening of the receptor during agonist application
# COND: patch-clamp current recording, 1 mM choline

Examples from the recorded data:
COMPOUND: C[C@H](O)Cc1nc(Nc2ccc(F)c(C(F)(F)F)c2)nn1-c1ccncc1Cl [E25]
Pam type: 2
--
COMPOUND: Cc1cc(-n2nc(Nc3ccc4c(c3)OC(F)(F)O4)nc2CC(=O)NC2CC2)c(C)cn1 [E160]
Pam type: 2
--
COMPOUND: CC[C@H](O)Cc1nc(Nc2cc(Cl)cc(OC)c2)nn1-c1ccnc(C)c1 [E206]
Pam type: 4
--
COMPOUND: CC[C@H](O)Cc1nc(Nc2cccc(Cl)c2)nn1-c1ccnc(C)c1 [E139]
Pam type: 2
--
COMPOUND: CCc1cc(-n2nc(Nc3ccc(F)c(F)c3)nc2C[C@@H](O)CC)ccn1 [E138]
Pam type: 2

Notebook: pull reported Pam type for hα7-wt nAChR-expressing GH4Cl cells (Homo sapiens), entry CC[C@H](O)Cc1nc(Nc2ccc(F)c(F)c2F)nn1-c1ccnc(C)c1 [E130]
2

Input COc1ccc(-n2nc(Nc3ccc(F)c(C(F)(F)F)c3)nc2C[C@H](C)O)cc1 [E22]
0

Input Cc1cc(-n2nc(Nc3cccc(Cl)c3F)nc2CC(=O)NC2CCC2)c(C)cn1 [E159]
1

Input CNC(=O)CCc1nc(Nc2ccc(F)c(F)c2)nn1-c1ccc(OC)cc1 [E43]
2

====

# TARGET_SYSTEM: hα7-wt nAChR-expressing GH4Cl cells (Homo sapiens)
# Construct: expressed in transfected cells
# PROCEDURE_DETAILS: Patch-clamp current recording (whole-cell), potentiation of choline 1 mM response, PAM type
# Assay type: cell-based
# COND: according to Ex. D.2; "<5" = no top plateau reached at maximal concentration; read-out: Potency (pEC50) (converted)
REPORTED_METRIC: EC50

Examples from the recorded data:
MOL: Cc1cc(-n2nc(Nc3cc(F)c(F)c(F)c3)nc2C[C@H](C)O)cc(C)n1
EC50: 741 nM
//
MOL: Cc1cc(-n2nc(Nc3ccc4c(c3)OC(F)(F)O4)nc2CCC(=O)N(C)C)cc(C)n1
EC50: 28.8 nM
//
MOL: CC[C@H](O)Cc1nc(Nc2cc(F)c(F)c(F)c2)nn1-c1ccnc(C)c1
EC50: 224 nM
//
MOL: CCNC(=O)Cc1nc(Nc2ccc(F)c(Cl)c2)nn1-c1cc(C)nc(C)c1
EC50: 105 nM

--- query ---
Need EC50 of Cc1nccc(-n2nc(Nc3cccc(Cl)c3F)nc2CC(=O)NCC2CC2)c1C , thanks.
~3020 nM

====

Below, each entry is listed alongside its reported melting point.
Write down the numeric answer in °C and omit the unit.

Examples from the recorded data:
MOL: CCNC(=O)Cc1nc(Nc2cccc(Cl)c2F)nn1-c1cc(C)nc(C)c1
melting point, °C: 231.4
//
MOL: CNC(=O)Cc1nc(Nc2cc(F)c(F)c(F)c2)nn1-c1cc(C)nc(C)c1
melting point, °C: 297.4
//
MOL: CNC(=O)Cc1nc(Nc2cc(F)cc(Cl)c2)nn1-c1cc(C)nc(C)c1
melting point, °C: 280.7
//
MOL: CNC(=O)Cc1nc(Nc2ccc(F)c(C(F)(F)F)c2)nn1-c1ccnc(C)c1
melting point, °C: 272.9

Need melting point of CNC(=O)Cc1nc(Nc2cc(Cl)cc(OC)c2)nn1-c1cc(C)nc(C)c1 , thanks.
246.2

====

Below, each entry is listed alongside its reported melting point.
Report as: number unit

Need melting point of CC[C@H](O)Cc1nc(Nc2cc(F)c(F)c(F)c2)nn1-c1ccnc(C)c1 , thanks.
177.4 °C

Input Cc1cc(-n2nc(Nc3cc(F)cc(Cl)c3)nc2CC(=O)NC2CCC2)cc(C)n1
287 °C

Input Cc1cc(-n2nc(Nc3cccc(OC(F)(F)F)c3)nc2CCC(=O)N(C)C)ccn1
215.4 °C

Input Cc1cc(-n2nc(Nc3cc(F)c(F)c(F)c3)nc2CC(=O)NC2CC2)cc(C)n1
295.7 °C

====

# TARGET_SYSTEM: hα7-wt nAChR-expressing GH4Cl cells (Homo sapiens, UniProt P36544)
# Construct: expressed in transfected cells
# Sequence (P36544 23-502): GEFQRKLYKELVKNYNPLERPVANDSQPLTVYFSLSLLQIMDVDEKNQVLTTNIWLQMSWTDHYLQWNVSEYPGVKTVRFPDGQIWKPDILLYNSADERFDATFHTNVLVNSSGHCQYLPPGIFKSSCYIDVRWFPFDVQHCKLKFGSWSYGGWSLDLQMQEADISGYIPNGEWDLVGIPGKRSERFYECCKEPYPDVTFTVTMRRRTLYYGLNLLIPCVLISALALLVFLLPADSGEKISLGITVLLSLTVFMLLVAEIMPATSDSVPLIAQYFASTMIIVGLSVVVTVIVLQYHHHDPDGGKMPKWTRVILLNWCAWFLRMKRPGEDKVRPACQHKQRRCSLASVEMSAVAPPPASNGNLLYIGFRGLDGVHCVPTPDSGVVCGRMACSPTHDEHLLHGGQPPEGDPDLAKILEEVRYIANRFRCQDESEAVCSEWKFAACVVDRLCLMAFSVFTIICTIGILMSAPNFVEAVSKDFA
# PROCEDURE_DETAILS: Patch-clamp current recording (whole-cell), potentiation of choline 1 mM response, PAM type
# Assay type: cell-based
# COND: according to Ex. D.2; "<5" = no top plateau reached at maximal concentration; read-out: Potency (pEC50) (converted)
Returns: string. Value is Yes if measured EC50 is below 1000 nM, and No if it is greater than or equal to it.

COMPOUND: COc1ccc(-n2nc(Nc3cccc(OC(F)(F)F)c3)nc2CCC(=O)N(C)C)cc1
GROUP_LABEL: Yes
//
COMPOUND: Cc1cc(-n2nc(Nc3cc(F)c(F)c(F)c3)nc2CC(=O)NC2CCC2)cc(C)n1
GROUP_LABEL: Yes

Query compound follows.
Take the compound COc1ccc(-n2nc(Nc3ccc(F)c(C(F)(F)F)c3)nc2C[C@H](C)O)cc1 and say whether its EC50 is less than 1000 nM.
Yes

====

Below, each entry is listed alongside its reported melting point.
Write down the numeric answer in °C and omit the unit.

Examples from the recorded data:
MOLECULE: CC[C@H](O)Cc1nc(Nc2ccc(F)c(F)c2)nn1-c1cc(C)nc(C)c1 [E132]
melting point (°C): 180.6
--
MOLECULE: CC[C@H](O)Cc1nc(Nc2ccc(F)c(F)c2)nn1-c1cccnc1 [E145]
melting point (°C): 144.2
--
MOLECULE: Cc1cc(-n2nc(Nc3ccc(F)c(F)c3F)nc2CC(=O)NCC2CC2)cc(C)n1 [E214]
melting point (°C): 213.7
--
MOLECULE: Cc1cc(-n2nc(Nc3ccc(F)c(F)c3)nc2CC(=O)NCC2CC2)cc(C)n1 [E185]
melting point (°C): 278.7
--
MOLECULE: Cc1cc(-n2nc(Nc3ccc4c(c3)OC(F)(F)O4)nc2CC(=O)NC2CC2)c(C)cn1 [E160]
melting point (°C): 248.3

Need melting point of C[C@H](O)Cc1nc(Nc2ccc(F)c(F)c2)nn1-c1ccc(F)cc1 [E19] , thanks.
178

Input CC[C@H](O)Cc1nc(Nc2cc(F)c(F)c(F)c2)nn1-c1cc(C)nc(C)c1 [E188]
176.6

Input CN(C)C(=O)CCc1nc(Nc2ccc(F)c(F)c2)nn1-c1ccc(Cl)cc1 [E59]
145.1

Input Cc1cc(-n2nc(Nc3cc(F)cc(C(F)(F)F)c3)nc2CC(=O)NC2CC2)cc(C)n1 [E253]
286.3

====

# TARGET_SYSTEM: hα7-wt nAChR-expressing cells (Homo sapiens)
# Construct: expressed in transfected cells; host or cells: hα7-wt nAChR-expressing cells
# Sequence (P36544 23-502): as above
# PROCEDURE_DETAILS: Ca2+ flux imaging (FDSS) (Protocol B), PAM activity with choline 100 μM
# Type: cell-based
# COND: according to Ex. D.1b; read-out: % Efficacy
Below, each entry is listed alongside its reported Emax.
Write down the numeric answer in % and omit the unit.

Examples from the recorded data:
MOLECULE: Cc1cc(-n2nc(Nc3ccc(F)c(F)c3F)nc2CC(=O)NCC2CC2)cc(C)n1 [E214]
UNIT_ABBREV: %
VAL: 730
//
MOLECULE: CNC(=O)Cc1nc(Nc2ccc(OC)c(C(F)(F)F)c2)nn1-c1cc(C)nc(C)c1 [E227]
UNIT_ABBREV: %
VAL: 654
//
MOLECULE: CC[C@H](O)Cc1nc(Nc2cc(OC)cc(C(F)(F)F)c2)nn1-c1ccnc(C)c1C [E220]
UNIT_ABBREV: %
VAL: 646
//
MOLECULE: CCNC(=O)Cc1nc(Nc2cc(F)cc(Cl)c2)nn1-c1cc(C)nc(C)c1 [E246]
UNIT_ABBREV: %
VAL: 494
//
MOLECULE: Cc1cc(-n2nc(Nc3ccc4c(c3)OC(F)(F)O4)nc2CCC(=O)N(C)C)cc(C)n1 [E235]
UNIT_ABBREV: %
VAL: 419

Need Emax of Cc1cc(-n2nc(Nc3ccc(F)c(F)c3)nc2CCC(=O)N(C)C)cc(C)n1 [E234] , thanks.
459

Input Cc1cc(-n2nc(Nc3cc(F)cc(F)c3)nc2CC(=O)NC2CCC2)cc(C)n1 [E239]
372

Input Cc1cc(-n2nc(Nc3ccc(F)c(Cl)c3)nc2CC(=O)NC2CC2)cc(C)n1 [E230]
417

Input CCNC(=O)Cc1nc(Nc2ccc(F)c(C(F)(F)F)c2)nn1-c1cc(C)nc(C)c1 [E224]
600

Input CNC(=O)Cc1nc(Nc2cc(Cl)cc(OC)c2)nn1-c1cc(C)nc(C)c1 [E216]
576
